meta.source: patent US8399491B2

Reported melting point values for the following molecules.

MOL_SMILES: CC(C)[Si](C)(C)c1ccc2c(c1)cc(C(=O)Nc1ccc(N3CCC3)nc1)n2Cc1cccc(F)c1
melting point: 179 to 180 °C
//
MOL_SMILES: C[Si](C)(C)c1ccc2c(c1)cc(C(=O)Nc1ccc(N3CCC3)nc1)n2Cc1cccc(F)c1
melting point: 212 to 213 °C
//
MOL_SMILES: O=C(Nc1ccc(N2CCC2)nc1)c1cc2cc([SiH2]C(c3ccccc3)c3ccccc3)ccc2n1Cc1cccc(F)c1
melting point: 98 to 100 °C
//
MOL_SMILES: C[Si](C)(c1ccc2c(c1)cc(C(=O)Nc1ccc(N3CCCC3)nc1)n2Cc1cccc(F)c1)C1CCCCC1
melting point: 192 to 194 °C
//
MOL_SMILES: CC[Si](C)(C)c1ccc2c(c1)cc(C(=O)Nc1ccc(N3CCC3)nc1)n2Cc1cccc(F)c1
melting point: 188 to 189 °C
//
MOL_SMILES: C[Si](C)(C)c1ccc2c(c1)cc(C(=O)Nc1ccc(N3CC(O)C3)nc1)n2Cc1cccc(F)c1
melting point: 207 to 208 °C
//
MOL_SMILES: C[Si](C)(C)c1cccc2cc(C(=O)Nc3ccc(N4CCC4)nc3)n(Cc3cccc(F)c3)c12
melting point: 160 to 162 °C
//
MOL_SMILES: C[Si](C)(c1ccccc1)c1ccc2c(c1)cc(C(=O)Nc1ccc(N3CCC3)nc1)n2Cc1cccc(F)c1
melting point: 200 to 202 °C

----------
Parameter melting point: see the listing below.
MEASURED_PROPERTY: melting point

MOL_SMILES: C[Si](C)(C)c1cccc2cc(C(=O)Nc3ccc(N4CC(O)C4)nc3)n(Cc3cccc(F)c3)c12
READING: 215 to 217 °C
//
MOL_SMILES: CC[Si](CC)(CC)c1ccc2c(c1)cc(C(=O)Nc1ccc(N3CCC3)nc1)n2Cc1cccc(F)c1
READING: 166 to 168 °C
//
MOL_SMILES: CC[Si](C)(CC)c1ccc2c(c1)cc(C(=O)Nc1ccc(N3CCC3)nc1)n2Cc1cccc(F)c1
READING: 171 to 173 °C
//
MOL_SMILES: CC(C)(C)[Si](C)(C)c1ccc2c(c1)cc(C(=O)Nc1ccc(N3CCC3)nc1)n2Cc1cccc(F)c1
READING: 110 to 112 °C
//
MOL_SMILES: C[Si](C)(c1ccc2c(c1)cc(C(=O)Nc1ccc(N3CCC3)nc1)n2Cc1cccc(F)c1)C1CCCCC1
READING: 202 to 203 °C
